TARGET_DESC: cloned human dopamine D3 receptors (Homo sapiens, UniProt P35462)
Construct: expressed in transfected cells; membrane homogenate
Sequence (P35462 whole entry): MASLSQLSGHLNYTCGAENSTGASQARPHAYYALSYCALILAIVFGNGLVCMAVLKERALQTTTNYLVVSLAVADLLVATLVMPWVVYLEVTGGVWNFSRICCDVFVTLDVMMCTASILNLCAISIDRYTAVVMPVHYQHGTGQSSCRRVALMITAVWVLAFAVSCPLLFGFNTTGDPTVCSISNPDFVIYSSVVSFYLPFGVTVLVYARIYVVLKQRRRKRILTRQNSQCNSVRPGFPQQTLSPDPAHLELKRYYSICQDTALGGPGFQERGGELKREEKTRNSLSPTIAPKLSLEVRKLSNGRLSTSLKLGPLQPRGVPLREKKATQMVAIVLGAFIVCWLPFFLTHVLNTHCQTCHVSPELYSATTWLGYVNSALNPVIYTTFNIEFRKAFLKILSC
PROTOCOL: [N-Methyl-3H]Spiroperidol binding to cloned human dopamine D3 receptors (Protocol 1)
RUN_PARAMETERS: the 19th table; read-out: D3 Ki
pKi: −log10 of the molar value.
MEASURED_METRIC: pKi

Recorded pKi, per entry:
RECORD_SMILES	pKi
O=C(Nc1cccc(CN2CCN(c3csc4cc(F)ccc34)CC2)c1)c1ccncc1	7.29
O=C(Nc1cccc(CN2CCN(c3csc4cc(F)ccc34)CC2)c1)c1ccsc1	6.61
O=C(Nc1ccc(CN2CCN(c3csc4cc(F)ccc34)CC2)cc1)c1ccc(-c2ccccc2)cc1	7.40
COc1ccc(C(=O)NCc2ccccc2CN2CCN(c3csc4cc(F)ccc34)CC2)cc1OC	6.85
O=C(Nc1cccc(CN2CCN(c3csc4cc(F)ccc34)CC2)c1)c1ccc(OC(F)(F)F)cc1	6.42

A = Cc1ccccc1C(=O)Nc1ccc(CN2CCN(c3csc4cc(F)ccc34)CC2)cc1
B = O=C(Nc1cccc(CN2CCN(c3csc4cc(F)ccc34)CC2)c1)c1cnc2ccccc2n1
C = O=C(Nc1cccc(CN2CCN(c3csc4cc(F)ccc34)CC2)c1)c1cccnc1Cl
Task item: Provide the items ranked by increasing pKi. Respond with the label ranking, as requested.
Reply: B, A, C
